Provenance of the data: patent US20250215104A1

Molecular target: T1, human soluble urokinase plasminogen activator receptor (hsuPAR) (human, UniProt Q03405 23-303, limits assumed)
T1 construct: also called human suPAR; rhuPAR-His
T1 sequence (Q03405 23-303 limits assumed): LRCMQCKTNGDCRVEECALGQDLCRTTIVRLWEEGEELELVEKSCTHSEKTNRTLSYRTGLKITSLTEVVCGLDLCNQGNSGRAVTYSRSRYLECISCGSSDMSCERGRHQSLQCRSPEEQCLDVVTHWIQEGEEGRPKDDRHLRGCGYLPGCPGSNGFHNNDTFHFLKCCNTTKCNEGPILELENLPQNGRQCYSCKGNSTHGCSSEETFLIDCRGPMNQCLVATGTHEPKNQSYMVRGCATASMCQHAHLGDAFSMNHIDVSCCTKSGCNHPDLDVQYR
Assay: BLI (Octet) off-rate screen of scFv
reportedProperty: koff

Entry under test: suPAR_DB01_H01 (scFv, V domains shown, Screened as scFv) VH: QVQLVQSGAEVKKPGASVKVSCKASGDTFTSYYMHWVRQAPGQGLEWMGWIDPENGNTIYDQKFQGRVTMTRDTSTSTVYMELSSLRSEDTAVYYCARGYDVDWFVYWGQGTLVTVSS VL: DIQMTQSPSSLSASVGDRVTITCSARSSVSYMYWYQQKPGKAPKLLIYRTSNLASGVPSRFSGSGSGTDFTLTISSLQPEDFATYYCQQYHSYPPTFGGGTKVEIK . Its koff was 0.00454 s⁻¹

Form: binder = suPAR_DB01_F12 (scFv, V domains shown, Screened as scFv) VH: QVQLVQSGAEVKKPGASVKVSCKASGFNIKDYYIHWVRQAPGQGLEWMGWIDPENGSTIYDQKFQGRVTMTRDTSTSTVYMELSSLRSEDTAVYYCARGYDVDWFVYWGQGTLVTVSS VL: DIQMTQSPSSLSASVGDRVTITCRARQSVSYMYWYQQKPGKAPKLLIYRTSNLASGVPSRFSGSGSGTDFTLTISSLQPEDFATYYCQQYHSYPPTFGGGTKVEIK ; koff = 0.00282 s⁻¹

Lookup result for suPAR_DB02_B08 (scFv, V domains shown, Screened as scFv) VH: QVQLVQSGAEVKKPGASVKVSCKASGYSFTNYYMHWVRQAPGQGLEWMGWIDHENGSTSYDQKFQGRVTMTRDTSTSTVYMELSSLRSEDTAVYYCARGYDVDWFVYWGQGTLVTVSS VL: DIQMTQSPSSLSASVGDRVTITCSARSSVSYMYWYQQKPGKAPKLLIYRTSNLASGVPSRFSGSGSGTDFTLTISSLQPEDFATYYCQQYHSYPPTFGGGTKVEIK ; measured koff: 0.00155 s⁻¹

Reported koff ( suPAR_DB02_B05 (scFv, V domains shown, Screened as scFv) VH: QVQLVQSGAEVKKPGASVKVSCKASGYTFTSYYMHWVRQAPGQGLEWMGWIDHENGNTSYAQKFQGRVTMTRDTSTSTVYMELSSLRSEDTAVYYCARGYDVDWFVYWGQGTLVTVSS VL: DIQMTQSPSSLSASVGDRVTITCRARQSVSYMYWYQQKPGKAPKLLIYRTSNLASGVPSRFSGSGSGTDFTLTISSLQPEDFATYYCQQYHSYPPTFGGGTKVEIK ) = 0.0041 s⁻¹

Entry suPAR_DB01_H10 (scFv, V domains shown, Screened as scFv) VH: QVQLVQSGAEVKKPGASVKVSCKASGYTFTNYYMHWVRQAPGQGLEWMGWIDHENGSTIYAQKFQGRVTMTRDTSTSTVYMELSSLRSEDTAVYYCARGYDVDWFVYWGQGTLVTVSS VL: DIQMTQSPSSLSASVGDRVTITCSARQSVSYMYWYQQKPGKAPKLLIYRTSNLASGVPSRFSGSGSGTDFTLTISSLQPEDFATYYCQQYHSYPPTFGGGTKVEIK — recorded koff = 0.000603 s⁻¹
